// provenance: patent US20100260765A1

tested.system: KDR endogenously expressed on human umbilical vein endothelial cells (HUVEC) (human, UniProt P35968 20-1356); further: test concentration or dose not given here
Sequence (P35968 20-1356): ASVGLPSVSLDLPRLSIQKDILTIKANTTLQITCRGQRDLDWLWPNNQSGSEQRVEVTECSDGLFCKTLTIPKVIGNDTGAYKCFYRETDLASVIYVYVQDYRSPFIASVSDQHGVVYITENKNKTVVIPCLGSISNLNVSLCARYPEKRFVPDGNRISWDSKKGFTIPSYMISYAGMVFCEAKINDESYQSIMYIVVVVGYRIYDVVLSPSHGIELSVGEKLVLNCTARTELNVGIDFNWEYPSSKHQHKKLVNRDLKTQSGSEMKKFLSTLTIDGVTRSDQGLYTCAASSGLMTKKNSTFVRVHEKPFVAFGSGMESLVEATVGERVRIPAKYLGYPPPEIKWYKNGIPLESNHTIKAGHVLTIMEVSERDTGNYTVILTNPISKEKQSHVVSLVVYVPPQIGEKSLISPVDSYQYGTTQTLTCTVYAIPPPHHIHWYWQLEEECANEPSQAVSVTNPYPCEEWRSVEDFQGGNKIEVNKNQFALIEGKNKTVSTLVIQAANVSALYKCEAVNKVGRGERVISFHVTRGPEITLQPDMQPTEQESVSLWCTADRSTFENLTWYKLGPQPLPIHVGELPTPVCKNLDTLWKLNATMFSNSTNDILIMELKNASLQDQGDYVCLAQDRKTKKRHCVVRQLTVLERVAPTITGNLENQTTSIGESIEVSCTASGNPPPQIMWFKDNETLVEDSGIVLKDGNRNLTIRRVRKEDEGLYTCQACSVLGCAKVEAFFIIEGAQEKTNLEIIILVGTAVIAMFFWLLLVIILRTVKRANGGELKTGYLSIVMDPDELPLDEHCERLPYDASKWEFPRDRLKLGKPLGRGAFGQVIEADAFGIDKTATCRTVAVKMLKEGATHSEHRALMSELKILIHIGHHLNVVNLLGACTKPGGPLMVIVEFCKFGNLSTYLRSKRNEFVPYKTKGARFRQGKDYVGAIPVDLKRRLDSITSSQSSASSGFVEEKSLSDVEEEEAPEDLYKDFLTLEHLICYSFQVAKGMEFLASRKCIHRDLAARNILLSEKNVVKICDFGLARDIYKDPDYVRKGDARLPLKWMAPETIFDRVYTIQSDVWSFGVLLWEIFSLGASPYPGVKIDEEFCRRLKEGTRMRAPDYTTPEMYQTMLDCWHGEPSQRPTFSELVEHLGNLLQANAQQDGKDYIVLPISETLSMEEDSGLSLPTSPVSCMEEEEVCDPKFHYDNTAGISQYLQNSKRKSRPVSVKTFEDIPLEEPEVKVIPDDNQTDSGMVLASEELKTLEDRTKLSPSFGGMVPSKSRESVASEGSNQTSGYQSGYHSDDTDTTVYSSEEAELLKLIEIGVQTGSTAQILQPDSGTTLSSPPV
test.details: cell-based or functional assay
property.name: VEGF-E-mediated Survival % Inhibition (Average) (%)
Numbers only, in %.

Looking up 1G6 (antibody, V domains shown, Fully human mAb from XenoMouse hybridoma, tested as hybridoma supernatant) VH: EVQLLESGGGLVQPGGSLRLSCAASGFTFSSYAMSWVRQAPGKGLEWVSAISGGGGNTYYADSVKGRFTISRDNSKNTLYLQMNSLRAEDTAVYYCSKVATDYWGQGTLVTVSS VL: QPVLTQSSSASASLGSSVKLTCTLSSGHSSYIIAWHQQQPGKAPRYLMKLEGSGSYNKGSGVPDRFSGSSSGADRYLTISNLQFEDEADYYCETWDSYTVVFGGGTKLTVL , I found its VEGF-E-mediated Survival % Inhibition (Average) recorded as 2

Attention now shifts to the item below.
The recorded VEGF-E-mediated Survival % Inhibition (Average) for entry 30D7 (antibody, V domains shown, Fully human mAb from XenoMouse hybridoma, tested as hybridoma supernatant) VH: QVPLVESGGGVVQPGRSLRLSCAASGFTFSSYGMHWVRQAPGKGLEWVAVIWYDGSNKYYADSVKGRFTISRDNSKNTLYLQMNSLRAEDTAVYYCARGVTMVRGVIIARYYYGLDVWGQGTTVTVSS VL: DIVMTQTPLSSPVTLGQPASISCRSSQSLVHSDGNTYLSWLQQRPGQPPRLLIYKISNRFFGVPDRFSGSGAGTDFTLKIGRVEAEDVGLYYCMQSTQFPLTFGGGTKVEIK equals -24
